Value source: patent US20190064177A1

Test system: diaphorase
assay_overview: fluorescently labeled diaphorase binding to peptide array with or without excess FAD
condition_summary: 10 micromolar labeled diaphorase, no FAD; 65535 is detector saturation
Record YES whenever 10 microM no FAD (array fluorescence of bound diaphorase) is at 20000 or higher; record NO when lower.

### Prompt For this sequence, is measured 10 microM no FAD (array fluorescence of bound diaphorase) 20000 or higher? RYNLYKPSDGSG [array peptide with C-terminal GSG linker]
### Response YES

### Prompt For this sequence, is measured 10 microM no FAD (array fluorescence of bound diaphorase) 20000 or higher? RAQYAQYLFGGSG [array peptide with C-terminal GSG linker]
### Response YES

### Prompt For this sequence, is measured 10 microM no FAD (array fluorescence of bound diaphorase) 20000 or higher? YRNAAWFSGGSG [array peptide with C-terminal GSG linker]
### Response YES

### Prompt For this sequence, is measured 10 microM no FAD (array fluorescence of bound diaphorase) 20000 or higher? YRFPNAQSPGGSG [array peptide with C-terminal GSG linker]
### Response YES

### Prompt For this sequence, is measured 10 microM no FAD (array fluorescence of bound diaphorase) 20000 or higher? EDEGLSKFEGGSG [array peptide with C-terminal GSG linker]
### Response NO

### Prompt For this sequence, is measured 10 microM no FAD (array fluorescence of bound diaphorase) 20000 or higher? RYYPAFSGGSG [array peptide with C-terminal GSG linker]
### Response YES

### Prompt For this sequence, is measured 10 microM no FAD (array fluorescence of bound diaphorase) 20000 or higher? VLSLNQVYSEGSG [array peptide with C-terminal GSG linker]
### Response NO

### Prompt For this sequence, is measured 10 microM no FAD (array fluorescence of bound diaphorase) 20000 or higher? KHSFQKELGGSG [array peptide with C-terminal GSG linker]
### Response NO

### Prompt For this sequence, is measured 10 microM no FAD (array fluorescence of bound diaphorase) 20000 or higher? WRGFKFADGGSG [array peptide with C-terminal GSG linker]
### Response YES

### Prompt For this sequence, is measured 10 microM no FAD (array fluorescence of bound diaphorase) 20000 or higher? ELFGALFKGGSG [array peptide with C-terminal GSG linker]
### Response NO

### Prompt For this sequence, is measured 10 microM no FAD (array fluorescence of bound diaphorase) 20000 or higher? YRLNLKHPVGGSG [array peptide with C-terminal GSG linker]
### Response YES

### Prompt For this sequence, is measured 10 microM no FAD (array fluorescence of bound diaphorase) 20000 or higher? RQAYLFGGSG [array peptide with C-terminal GSG linker]
### Response YES

### Prompt For this sequence, is measured 10 microM no FAD (array fluorescence of bound diaphorase) 20000 or higher? RYPWNKLYKFDGSG [array peptide with C-terminal GSG linker]
### Response YES

### Prompt For this sequence, is measured 10 microM no FAD (array fluorescence of bound diaphorase) 20000 or higher? RFKYPLDGGSG [array peptide with C-terminal GSG linker]
### Response YES

### Prompt For this sequence, is measured 10 microM no FAD (array fluorescence of bound diaphorase) 20000 or higher? LKQLFLEGGSG [array peptide with C-terminal GSG linker]
### Response NO

### Prompt For this sequence, is measured 10 microM no FAD (array fluorescence of bound diaphorase) 20000 or higher? RFGQNLPLGGSG [array peptide with C-terminal GSG linker]
### Response YES

### Prompt For this sequence, is measured 10 microM no FAD (array fluorescence of bound diaphorase) 20000 or higher? EAVQKLLFSGSG [array peptide with C-terminal GSG linker]
### Response NO

### Prompt For this sequence, is measured 10 microM no FAD (array fluorescence of bound diaphorase) 20000 or higher? RPLQVQRGGSG [array peptide with C-terminal GSG linker]
### Response YES

### Prompt For this sequence, is measured 10 microM no FAD (array fluorescence of bound diaphorase) 20000 or higher? PRYQNFGGGSG [array peptide with C-terminal GSG linker]
### Response YES

### Prompt For this sequence, is measured 10 microM no FAD (array fluorescence of bound diaphorase) 20000 or higher? LLGFLGGSG [array peptide with C-terminal GSG linker]
### Response YES

### Prompt For this sequence, is measured 10 microM no FAD (array fluorescence of bound diaphorase) 20000 or higher? PRSFGYNNVGGSG [array peptide with C-terminal GSG linker]
### Response YES

### Prompt For this sequence, is measured 10 microM no FAD (array fluorescence of bound diaphorase) 20000 or higher? RLQYLFKSDGSG [array peptide with C-terminal GSG linker]
### Response YES

### Prompt For this sequence, is measured 10 microM no FAD (array fluorescence of bound diaphorase) 20000 or higher? LDRLGEYQFSGSG [array peptide with C-terminal GSG linker]
### Response NO

### Prompt For this sequence, is measured 10 microM no FAD (array fluorescence of bound diaphorase) 20000 or higher? YNRNAKSSGGSG [array peptide with C-terminal GSG linker]
### Response YES

### Prompt For this sequence, is measured 10 microM no FAD (array fluorescence of bound diaphorase) 20000 or higher? AQVAVDGFYVDGSG [array peptide with C-terminal GSG linker]
### Response NO

### Prompt For this sequence, is measured 10 microM no FAD (array fluorescence of bound diaphorase) 20000 or higher? RWYKNGGSG [array peptide with C-terminal GSG linker]
### Response YES

### Prompt For this sequence, is measured 10 microM no FAD (array fluorescence of bound diaphorase) 20000 or higher? KPLAVQKVGSG (KPLAVQKVFGSG) [array peptide with C-terminal GSG linker]
### Response YES

### Prompt For this sequence, is measured 10 microM no FAD (array fluorescence of bound diaphorase) 20000 or higher? NVSDLSQFYLSGSG [array peptide with C-terminal GSG linker]
### Response NO

### Prompt For this sequence, is measured 10 microM no FAD (array fluorescence of bound diaphorase) 20000 or higher? FGKLYQLYNDGSG [array peptide with C-terminal GSG linker]
### Response NO

### Prompt For this sequence, is measured 10 microM no FAD (array fluorescence of bound diaphorase) 20000 or higher? SVLEGYQAVFGGSG [array peptide with C-terminal GSG linker]
### Response NO

### Prompt For this sequence, is measured 10 microM no FAD (array fluorescence of bound diaphorase) 20000 or higher? RSHPKHNVGSG [array peptide with C-terminal GSG linker]
### Response NO

### Prompt For this sequence, is measured 10 microM no FAD (array fluorescence of bound diaphorase) 20000 or higher? YVWGLELSGGSG [array peptide with C-terminal GSG linker]
### Response NO

### Prompt For this sequence, is measured 10 microM no FAD (array fluorescence of bound diaphorase) 20000 or higher? VVQALFDGSG [array peptide with C-terminal GSG linker]
### Response NO

### Prompt For this sequence, is measured 10 microM no FAD (array fluorescence of bound diaphorase) 20000 or higher? LAKQNRVEDGSS (LAKQNRVEDGSG) [array peptide with C-terminal GSG linker]
### Response NO

### Prompt For this sequence, is measured 10 microM no FAD (array fluorescence of bound diaphorase) 20000 or higher? YSALFGLQEDGSG [array peptide with C-terminal GSG linker]
### Response NO

### Prompt For this sequence, is measured 10 microM no FAD (array fluorescence of bound diaphorase) 20000 or higher? RWSFPAKGGSG [array peptide with C-terminal GSG linker]
### Response YES

###

Test system: diaphorase
assay_overview: fluorescently labeled diaphorase binding to peptide array with or without excess FAD
condition_summary: 1 micromolar labeled diaphorase, excess FAD present; 65535 is detector saturation
endpoint_label: 1 microM FAD (array fluorescence of bound diaphorase)
Note: the reply should be a number with no unit written.

### Prompt Output 1 microM FAD (array fluorescence of bound diaphorase) of RLQYLFKSDGSG [array peptide with C-terminal GSG linker]
### Response 1964.75

### Prompt Output 1 microM FAD (array fluorescence of bound diaphorase) of EGYANKLLALFSGSG [array peptide with C-terminal GSG linker]
### Response 1727

### Prompt Output 1 microM FAD (array fluorescence of bound diaphorase) of WLDLGVFPYQHLGSG [array peptide with C-terminal GSG linker]
### Response 3433.25

### Prompt Output 1 microM FAD (array fluorescence of bound diaphorase) of FQFGKVVSDGSG [array peptide with C-terminal GSG linker]
### Response 2470

### Prompt Output 1 microM FAD (array fluorescence of bound diaphorase) of LKQLFLEGGSG [array peptide with C-terminal GSG linker]
### Response 2474.5

### Prompt Output 1 microM FAD (array fluorescence of bound diaphorase) of QLLQLLFGGSG [array peptide with C-terminal GSG linker]
### Response 6311.5

### Prompt Output 1 microM FAD (array fluorescence of bound diaphorase) of YRPYGPVYNGGSG [array peptide with C-terminal GSG linker]
### Response 6762.5

### Prompt Output 1 microM FAD (array fluorescence of bound diaphorase) of YRFPNAQSPGGSG [array peptide with C-terminal GSG linker]
### Response 2373

### Prompt Output 1 microM FAD (array fluorescence of bound diaphorase) of VLSLNQVYSEGSG [array peptide with C-terminal GSG linker]
### Response 2705.5
